Data credit: PubChem BioAssay AID2360

- target under test: Serine/threonine-protein phosphatase 5 (Homo sapiens) (UniProt P53041)
- Sequence (P53041 whole entry, looked up): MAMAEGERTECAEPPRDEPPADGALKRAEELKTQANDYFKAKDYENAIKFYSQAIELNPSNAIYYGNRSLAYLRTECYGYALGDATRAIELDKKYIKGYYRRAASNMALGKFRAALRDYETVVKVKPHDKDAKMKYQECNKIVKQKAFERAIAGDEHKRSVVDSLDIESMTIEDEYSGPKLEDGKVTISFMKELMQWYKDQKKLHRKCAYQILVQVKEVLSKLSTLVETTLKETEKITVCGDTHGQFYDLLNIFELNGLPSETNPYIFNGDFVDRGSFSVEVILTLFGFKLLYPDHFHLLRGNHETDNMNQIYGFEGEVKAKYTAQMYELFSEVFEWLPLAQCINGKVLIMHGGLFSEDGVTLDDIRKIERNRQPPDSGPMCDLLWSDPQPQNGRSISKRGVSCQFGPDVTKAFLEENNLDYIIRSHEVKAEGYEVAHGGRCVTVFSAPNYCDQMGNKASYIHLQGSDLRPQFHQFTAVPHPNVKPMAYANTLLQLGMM
- protocol description: PP5 phosphatase inhibition by PP1 hits, confirmation, counter-screen for PP1 inhibitor project, biochemical, fluorescence, triplicate (AID 2360)
- measurement setup: purified PP5c, OMFP fluorescence; at 6.7 µM
Out of some 1,900 compounds screened, about 85 (4%) were called active.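 The calls were made as follows: active = mean PP5 inhibition over triplicate wells above about 9.5% taken from the earlier PP1 screen (limit read from the data); inactive = the rest.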 Only a sample is shown.
Outcomes: label 1 (active), label 0 (inactive)

[
  {
    "compound": "CN1CCN(CCCNC(=O)c2ccc(/C=C3\\Oc4ccccc4N(Cc4ccc(Cl)cc4)C3=O)cc2)CC1",
    "label value": "label 0"
  },
  {
    "compound": "O=C(/C=C/c1ccc(F)cc1)NC(=S)NNC(=O)c1cccnc1",
    "label value": "label 0"
  },
  {
    "compound": "CN(C(=O)COC(=O)c1cc(-c2ccco2)nc2ccccc12)C1CCS(=O)(=O)C1 (centres undefined)",
    "label value": "label 0"
  },
  {
    "compound": "C#CCOCCOCCOCCNc1nc(N2CCN(C(=O)CCCCCCCCCCNC(=O)Cn3cc(CCCCCN)nn3)CC2)nc(N2CCN(C(=O)CCCCCCCCCCNC(=O)[C@H](CO)n3cc(CCCSC)nn3)CC2)n1",
    "label value": "label 0"
  },
  {
    "compound": "O=C(COC(=O)c1ccc(Oc2ccccc2)cc1)Nc1nnc(-c2ccccc2)o1",
    "label value": "label 0"
  },
  {
    "compound": "Nc1ccc2nc3c(=O)[nH]c(=S)[nH]c3nc2c1",
    "label value": "label 1"
  },
  {
    "compound": "CC(C)(C)Nc1nc(-c2ccccn2)nc2ccccc12",
    "label value": "label 0"
  },
  {
    "compound": "Oc1c(C(c2ccccn2)N2CCOCC2)ccc2cccnc12 (centres undefined)",
    "label value": "label 0"
  },
  {
    "compound": "COc1cc(C2C(C(=O)c3ccc(C)o3)=C(O)C(=O)N2CCc2ccccc2)ccc1O (centres undefined)",
    "label value": "label 0"
  }
]

----------
- target under test: Serine/threonine-protein phosphatase 5 (Homo sapiens) (UniProt P53041)
- protocol description: PP5 phosphatase inhibition by PP1 hits, confirmation, counter-screen for PP1 inhibitor project, biochemical, fluorescence, triplicate (AID 2360)
- measurement setup: purified PP5c, OMFP fluorescence; at 6.7 µM; stronger effect = higher value
In all, about 1,900 compounds went through this assay and about 85 (4%) were called active. Not all results are given here.

[
  {
    "compound": "Oc1ccc(C2Nc3cccc4cccc(c34)N2)cc1",
    "target under test": "Serine/threonine-protein phosphatase 5 (Homo sapiens) (UniProt P53041)",
    "inhibition (%)": 8.12
  },
  {
    "compound": "Cc1cc(N2C(=O)C(O)=C(C(=O)c3ccc(C)o3)C2c2ccc(OCc3ccccc3)cc2)no1 (stereo not given)",
    "target under test": "Serine/threonine-protein phosphatase 5 (Homo sapiens) (UniProt P53041)",
    "inhibition (%)": -0.28
  },
  {
    "compound": "Oc1c(CN2CCN(c3ccc(F)cc3)CC2)cc(Cl)c2cccnc12",
    "target under test": "Serine/threonine-protein phosphatase 5 (Homo sapiens) (UniProt P53041)",
    "inhibition (%)": 2.27
  },
  {
    "compound": "Cc1ccc(CSCC2Nc3ccc(C(=O)N4CCN(c5ccc(F)cc5)CC4)cc3NC2=O)cc1 (stereo not given)",
    "target under test": "Serine/threonine-protein phosphatase 5 (Homo sapiens) (UniProt P53041)",
    "inhibition (%)": -0.12
  },
  {
    "compound": "COc1cccc(/C=N/NC(=O)c2[nH]nc3c2CCc2ccccc2-3)c1O",
    "target under test": "Serine/threonine-protein phosphatase 5 (Homo sapiens) (UniProt P53041)",
    "inhibition (%)": -2.54
  },
  {
    "compound": "C=CCn1c(=S)[nH]c2scc(-c3ccco3)c2c1=O",
    "target under test": "Serine/threonine-protein phosphatase 5 (Homo sapiens) (UniProt P53041)",
    "inhibition (%)": 1.52
  },
  {
    "compound": "COCCCNC(=O)C1CC(=O)N(c2ccc(C)cc2)C1 (stereo not given)",
    "target under test": "Serine/threonine-protein phosphatase 5 (Homo sapiens) (UniProt P53041)",
    "inhibition (%)": -1.02
  },
  {
    "compound": "N#Cc1c(-c2ccccc2)nc(SCc2cccc(C(F)(F)F)c2)[nH]c1=O",
    "target under test": "Serine/threonine-protein phosphatase 5 (Homo sapiens) (UniProt P53041)",
    "inhibition (%)": -1.06
  },
  {
    "compound": "O=C1C2N=NN(CC(=O)N3N=C(c4cccc5ccccc45)CC3c3ccccc3)C2C(=O)N1c1ccccc1 (stereo not given)",
    "target under test": "Serine/threonine-protein phosphatase 5 (Homo sapiens) (UniProt P53041)",
    "inhibition (%)": -0.31
  },
  {
    "compound": "COc1ccc(-c2nn(-c3ccccc3)cc2/C=C2/SC(=S)N(CCCC(=O)O)C2=O)c(C)c1",
    "target under test": "Serine/threonine-protein phosphatase 5 (Homo sapiens) (UniProt P53041)",
    "inhibition (%)": -0.32
  }
]

----------
- target under test: Serine/threonine-protein phosphatase 5 (Homo sapiens) (UniProt P53041)
- protocol description: PP5 phosphatase inhibition by PP1 hits, confirmation, counter-screen for PP1 inhibitor project, biochemical, fluorescence, triplicate (AID 2360)
- measurement setup: purified PP5c, OMFP fluorescence; at 6.7 µM; stronger effect = higher value
The whole screen tested about 1,900 compounds, of which about 85 (4%) were called active. Not all results are given here.
Listed here are compounds together with their documented inhibition.

[
  {
    "compound": "Cc1ccc(Cn2nnc3c(=O)[nH]c(C4CCN(S(=O)(=O)/C=C/c5ccccc5)CC4)nc32)cc1",
    "inhibition (%)": 2.46
  },
  {
    "compound": "CC(=O)c1ccc(N2CCN(S(=O)(=O)c3ccc4c(c3)CC(=O)N4C)CC2)cc1",
    "inhibition (%)": 2.4
  },
  {
    "compound": "Cc1ccc2cc(CCNC(=O)c3c(-c4ccccc4Cl)noc3C)c(=O)[nH]c2c1",
    "inhibition (%)": -2.45
  },
  {
    "compound": "Cc1ccc(S(=O)(=O)N2[C@@H](c3cccc(Cl)c3)C(C(=O)O)=CC[C@H]2c2ccc(Cl)c(Cl)c2)cc1",
    "inhibition (%)": 2.51
  },
  {
    "compound": "CN(C(=O)CN(CCO)CC(=O)N(C)C(C)(C)Cc1ccccc1)C(C)(C)Cc1ccccc1",
    "inhibition (%)": -8.53
  },
  {
    "compound": "CSc1ccc(/C=N\\NC(=O)COc2ccc(Cl)cc2Br)cc1",
    "inhibition (%)": -2.43
  },
  {
    "compound": "C=CCn1c(=NC(=O)c2ccc(S(=O)(=O)N3CCCC3)cc2)sc2cc(NC(C)=O)ccc21",
    "inhibition (%)": -0.04
  },
  {
    "compound": "Clc1ccc(-n2nnnc2-c2cnc(-c3ccccn3)nc2-c2cccs2)cc1",
    "inhibition (%)": -0.17
  },
  {
    "compound": "CCC(=C/c1sc2ccc3ccccc3c2[n+]1C)/C=C1\\Sc2ccc3ccccc3c2N1C",
    "inhibition (%)": 0.84
  },
  {
    "compound": "CCCOc1ccc(C2C(C(=O)c3ccc(C)o3)=C(O)C(=O)N2CCCn2ccnc2)cc1 (centres undefined)",
    "inhibition (%)": 2.29
  },
  {
    "compound": "O=C(Nc1nnc(-c2ccccc2)o1)c1cc(-c2cccs2)nc2ccccc12",
    "inhibition (%)": -6.61
  },
  {
    "compound": "Cc1ccc(-c2cc(C(=O)N/N=C/C=C/c3ccco3)c3ccccc3n2)cc1C",
    "inhibition (%)": 2.19
  },
  {
    "compound": "Cc1ccc(NS(=O)(=O)c2ccc(N/N=C/c3ccccc3OCC(=O)O)c([N+](=O)[O-])c2)c(C)c1",
    "inhibition (%)": 3.83
  },
  {
    "compound": "CCCCn1c(SCc2ncc(-c3ccccc3)o2)nc2cc(S(N)(=O)=O)ccc21",
    "inhibition (%)": -3.7
  },
  {
    "compound": "N=c1n(Cc2ccc(Cl)cc2)c2ccccc2n1CC(O)c1ccco1 (centres undefined)",
    "inhibition (%)": -3.3
  },
  {
    "compound": "Cc1ccc(Nc2nc(CSc3nnnn3-c3ccccc3)cc(=O)[nH]2)cc1",
    "inhibition (%)": -0.66
  },
  {
    "compound": "C#CCOCCOCCOCCNc1nc(N2CCN(C(=O)CCCCCCCCCCNC(=O)[C@H](CCCCN)n3cc(C)nn3)CC2)nc(N2CCN(C(=O)CCCCCCCCCCNC(=O)[C@H](CO)n3cc(CCCSC)nn3)CC2)n1",
    "inhibition (%)": -2.42
  },
  {
    "compound": "Cc1ccc(-c2cc(C(=O)Nc3nn[nH]n3)c3ccccc3n2)c(C)c1",
    "inhibition (%)": -5.88
  },
  {
    "compound": "Cc1ccc(-c2nn(-c3ccccc3)cc2/C=C2\\SC(=S)N(CCCCCC(=O)O)C2=O)o1",
    "inhibition (%)": 1.44
  }
]
